- MEASURED_TARGET: recombinant H1-HA (D18-I530), A/California/06/2009 (H1N1)pdm09 (Influenza A virus A/California/06/2009 …, UniProt C3W5S1, strain)
- EXPERIMENTAL_DETAILS: SPR
- CONDITIONS_USED: both partners purified
Field: label. Allowed values: 1 (kon < 300000 M⁻¹ s⁻¹) or 0 (kon >= 300000 M⁻¹ s⁻¹).

INPUT: Quick check: does R2b-D9 (VHH, source: E. coli WK6 periplasm, purified (Talon IMAC, Superdex 75 SEC)) VHH: QVQLVESGGGLVQPGGSLRLSCLASGSAFSLYTMGWYRQAPGNQRELVAAITSGESTNYADSVKGRFTISRDNAKNTVYLQMNSLKPEDTAVYYCNADPLSTGWGQYSYWGQGTQVTVSS have kon under 300000 M⁻¹ s⁻¹?
OUTPUT: 1

INPUT: Quick check: does R2a-H9 (VHH, source: E. coli WK6 periplasm, purified (Talon IMAC, Superdex 75 SEC)) VHH: QVQLVESGGGLVQPGGSLRLSCAASTNIASFYTMGWYRQTPGQQRDVVAVIGNGGNTNYADSVKGRFTISRDGAKNTAHLQMNSLKPEDTDVYYCKASGPGGVILWGQGTQVTVSS have kon under 300000 M⁻¹ s⁻¹?
OUTPUT: 1

INPUT: Quick check: does R2a-F9 (VHH, source: E. coli WK6 periplasm, purified (Talon IMAC, Superdex 75 SEC)) VHH: QVQLVESGGGLVQPGGSLRLSCSASGSISSIVTMGWYRQAPGKERELVAVIGNYGNTNYADSVKGRFTVSRDNAKNTVYLQMNSLNVEDTAMYVCKFSSTVAPHEYWGQGTQVTVSS have kon under 300000 M⁻¹ s⁻¹?
OUTPUT: 0

INPUT: Quick check: does R2a-B9 (VHH, source: E. coli WK6 periplasm, purified (Talon IMAC, Superdex 75 SEC)) VHH: QVQLVESGGGLVQPGGSLRLSCAASGSAFSINAMGWYRQAPGEEREFVAAITAGGNTYYADSAKARFTISRDNAKNMLYLQMNSLKPEDTAMYYCAATKAFGIATITADYELWGQGTQVTVSS have kon under 300000 M⁻¹ s⁻¹?
OUTPUT: 0

INPUT: Quick check: does R2a-G8 (VHH, source: E. coli WK6 periplasm, purified (Talon IMAC, Superdex 75 SEC)) VHH: QLQLAESGGGLVQAGGSLRLSCAASGSTLNNNAIGWFRQAPGKEREGVSCMNSRDGTTNYADSVKGRFTISRDVAKNTVYLQMNSLKPEDTAVYFCAVKGFAPFLIGCPWGKAEYDYWGQGTQVTVSS have kon under 300000 M⁻¹ s⁻¹?
OUTPUT: 1

INPUT: Quick check: does R2a-E8 (VHH, source: E. coli WK6 periplasm, purified (Talon IMAC, Superdex 75 SEC)) VHH: QLQLVESGGGLVQPGGSLRLSCTASGDIFVMYMIDWYRQAPGKQRELVASIDGRGTPMYADSVKGRFTISRDNAKNTVYLQMNSLKPEDTAVYSCHAKSPLVDNEYWGQGTQVTVSS have kon under 300000 M⁻¹ s⁻¹?
OUTPUT: 1

INPUT: Quick check: does R1a-G5 (VHH, source: E. coli WK6 periplasm, purified (Talon IMAC, Superdex 75 SEC)) VHH: QLQLVESGGGLVQPGGSLRLSCAASGSISRIVTMGWYRQASGKERELVAVIGNYGNTNYADSVKGRFTVSRDNAKDTAYLQMNGLNVEDTAIYYCKTSTTTPPYEYWGQGTQVTVSS have kon under 300000 M⁻¹ s⁻¹?
OUTPUT: 0

INPUT: Quick check: does R2a-G9 (VHH, source: E. coli WK6 periplasm, purified (Talon IMAC, Superdex 75 SEC)) VHH: QVQLVESGGGLVQPGGSLRLSCAASDNIFSFYTMGWYRQSPGKERELVAVIGNGGNTNYADSVKGRFTISRDNGKNKAHLQMNSLKPEDTAVYYCKASGPGGVEVWGQGTQVTVSS have kon under 300000 M⁻¹ s⁻¹?
OUTPUT: 1

INPUT: Quick check: does R1a-G6 (VHH, source: E. coli WK6 periplasm, purified (Talon IMAC, Superdex 75 SEC)) VHH: QVQLVESGGGLVQSGGSLRLSCAASGSMSRIITMGWYRQAPGMERELVAVIGNNDNTVYGDSVQGRFTVSRDNAKNTAYLQMNSLNAEDTAMYYCKISTLTPPHEYWGQGTQVTVSS have kon under 300000 M⁻¹ s⁻¹?
OUTPUT: 1

INPUT: Quick check: does R1a-E6 (VHH, source: E. coli WK6 periplasm, purified (Talon IMAC, Superdex 75 SEC)) VHH: QVQLVESGGGLVQPGGSLRLSCAASGFTLGAYAIAWFRQAPGKEREGVSCISPSDSFTEYGDSVKGRFTVSRDNAKNTVYLQMNSLQPEDTAVYYCAADPVCTAGWYRPSRFDLWGQGTQVTVSS have kon under 300000 M⁻¹ s⁻¹?
OUTPUT: 1

INPUT: Quick check: does R1a-F5 (VHH, source: E. coli WK6 periplasm, purified (Talon IMAC, Superdex 75 SEC)) VHH: QLQLVESGGGLVQVGGSLRLSCAASGFPFDGYAIAWFRQAPGKEREGVSCRASDGNTYYAESLKGRLTMSTDNAKNTVYLQMNSLKPEDTAVYYCAAASWVASLWSPSEYDYWGQGTQVTVSS have kon under 300000 M⁻¹ s⁻¹?
OUTPUT: 1

INPUT: Quick check: does R2b-E8 (VHH, source: E. coli WK6 periplasm, purified (Talon IMAC, Superdex 75 SEC)) VHH: QVQLVESGGGLVQPGGSLRLSCAASGSFFSRYRMGWYRQAPGEQRELVAGITYDDSTNYAGSVKGRFTISRDNAKNTVHLQMNSLKPEDTAVYYCNLNPPGNLYWGQGTQVTVSS have kon under 300000 M⁻¹ s⁻¹?
OUTPUT: 0

INPUT: Quick check: does R1a-C5 (VHH, source: E. coli WK6 periplasm, purified (Talon IMAC, Superdex 75 SEC)) VHH: QVQLVESGGGLVQPGGSLRLSCAASNDIFSFYTMGWYLQAIGKQREPVAVIGNGGNTNYAESVKGRFTISRDGAKNTAYLQMNSLKPEDTAVYYCMASGPGGLNVWGQGTQVTVSS have kon under 300000 M⁻¹ s⁻¹?
OUTPUT: 0

INPUT: Quick check: does R1a-E5 (VHH, source: E. coli WK6 periplasm, purified (Talon IMAC, Superdex 75 SEC)) VHH: QLQLVESGGGLVQPGGSLRLSCTASGFSLDNYAIGWFRRAPGEEREGVSFITSTSAVTKYADSVKGRFTISRDNAKNTVYLQMTSLKPEDTAVYYCAGTRWVPTMKADEYNYWGQGTQVTVSS have kon under 300000 M⁻¹ s⁻¹?
OUTPUT: 1

INPUT: Quick check: does R1a-F4 (VHH, source: E. coli WK6 periplasm, purified (Talon IMAC, Superdex 75 SEC)) VHH: QVQLVESGGGLVQPGGSLRLSCAASGSISRIVTMGWYRQGPGKERELVAVIGNYGNTNYADSVKGRFTVSRDNAKDTAYLQMNNLNVEDTAMYYCKCSTTTPPHEFWGQGTQVTVSS have kon under 300000 M⁻¹ s⁻¹?
OUTPUT: 0
